- Run Description: xn = mol fraction of the nth substance listed
- Recorded Conditions: 288.15 K; 101 kPa; Liquid; x1 = 0.2
Endpoint: mass density (kg/m3)

# Compound, mass density, kg/m3
data = [
    ("CCCCCC(=O)OCC [ethyl hexanoate] + CCO", 827.14),
    ("CCOC(=O)c1ccccc1 [ethyl benzoate] + CCO", 894.37),
    ("CCCC(=O)OCCC(C)C [3-methylbutyl butanoate] + CCO", 825.58),
    ("CCOC(=O)Cc1ccccc1 [ethyl phenylacetate] + CCO", 894.42),
    ("CCCCCCCC(=O)OCC [ethyl octanoate] + CCO", 828.52),
]

---

- Run Description: xn = mol fraction of the nth substance listed
- Recorded Conditions: 318.15 K; 100.5 kPa; Liquid; x1 = 0.4
Endpoint: viscosity (mPa·s)

# Molecule, viscosity / mPa·s
records = [
    ("CCCCCCCC(=O)OCC [ethyl octanoate] + CCO", 0.844),
    ("CCCC(=O)OCCC(C)C [3-methylbutyl butanoate] + CCO", 0.717),
    ("CC(=O)OCCC(C)C [3-methylbutyl ethanoate] + CCO", 0.59),
    ("CCOC(=O)Cc1ccccc1 [ethyl phenylacetate] + CCO", 1.055),
    ("CCOC(=O)c1ccccc1 [ethyl benzoate] + CCO", 0.935),
    ("CCCCCC(=O)OCC [ethyl hexanoate] + CCO", 0.657),
]

---

- Run Description: xn = mol fraction of the nth substance listed
- Recorded Conditions: 308.15 K; 100.5 kPa; Liquid; x1 = 0.6
Endpoint: viscosity (mPa·s)

# Molecule, Measured Value
measured = [
    ("CC(=O)OCCC(C)C [3-methylbutyl ethanoate] + CCO", 0.667),
    ("CCCCCC(=O)OCC [ethyl hexanoate] + CCO", 0.765),
    ("CCOC(=O)Cc1ccccc1 [ethyl phenylacetate] + CCO", 1.455),
]

(1) CCOC(=O)c1ccccc1 [ethyl benzoate] + CCO
(2) CCCC(=O)OCCC(C)C [3-methylbutyl butanoate] + CCO
Just tell me: smaller viscosity value, 1 or 2 ? # answer = label of selected item
2
(2: 0.862 mPa·s, 1: 1.247 mPa·s)

---

- Run Description: xn = mol fraction of the nth substance listed
- Recorded Conditions: 288.15 K; 101 kPa; Liquid; x1 = 0.8
Endpoint: mass density (kg/m3)

# Molecule, mass density [kg/m3]
data = [
    ("CCCCCCCC(=O)OCC [ethyl octanoate] + CCO", 865.13),
    ("CCCCCC(=O)OCC [ethyl hexanoate] + CCO", 868.48),
    ("CCOC(=O)Cc1ccccc1 [ethyl phenylacetate] + CCO", 1016.36),
    ("CCCC(=O)OCCC(C)C [3-methylbutyl butanoate] + CCO", 861.76),
    ("CCOC(=O)c1ccccc1 [ethyl benzoate] + CCO", 1027.63),
]

---

- Run Description: xn = mol fraction of the nth substance listed
- Recorded Conditions: 288.15 K; 100.5 kPa; Liquid; x1 = 0.25
Endpoint: viscosity (mPa·s)

Consider the worked cases shown below.
# Compound, Measured Value
data = [
    ("CCCCCC(=O)OCC [ethyl hexanoate] + CCO", 1.082),
    ("CCOC(=O)Cc1ccccc1 [ethyl phenylacetate] + CCO", 1.584),
]

(P) CCOC(=O)c1ccccc1 [ethyl benzoate] + CCO
(Q) CC(=O)OCCC(C)C [3-methylbutyl ethanoate] + CCO
// which entry has the larger viscosity value, P or Q ? # answer = label of selected item
P
(P: 1.465 mPa·s, Q: 0.996 mPa·s)

Entry source: the NIST ThermoML archive (doi:10.1021/je050389b)
